This listing pairs compounds with measured EC50.
Target: TLR7 (Homo sapiens)
Construct: lymphocytes, monocytes and dendritic cells that express TLR7, TLR8 and TLR9; endogenous in cells; host or cells: human PBMCs from healthy donors
Test: Human PBMC cell-based assay, TLR7 agonist GS-986 stimulation, cytokine (IL-6 and IFNα) readout
Settings: human PBMCs, GS-986 400 nM, 6 hours; Table 26; read-out: TLR-7 EC50
Use µM as the unit, but write only the number.

1) CCc1c(-c2cc(C)c3ncnn3c2)[nH]c2cc(-c3ccc(N4CCNCC4)nc3)ccc12 [Example 167] :: 0.00017
2) Cc1cc(-c2[nH]c3cc(-c4ccc5c(n4)CCNC5)ccc3c2C)cc(C)n1 [Example 182] :: 0.0596
3) Cc1c(-c2cc(C)c3ncnn3c2)[nH]c2cc(-c3nc4ccccc4[nH]3)ccc12 [Example 193] :: 0.483
4) Cc1cc(-c2[nH]c3cc(-c4cnn(C5CCNC5)c4)ccc3c2C)cc(C)n1 (centres unmarked) [Example 17] :: 0.123
5) Cc1c(-c2cc(C)c3ncnn3c2)[nH]c2cc(-c3nnc(N4CCNCC4)o3)ccc12 [Example 192] :: 0.0656

Record Cc1cc(-c2[nH]c3cc(-c4ccc(N5CC6(CNCCO6)C5)nc4)ccc3c2C)cc(C)n1 [Example 29] , field EC50: 0.0316

---

Target: TLR7 (Homo sapiens)
Construct: lymphocytes, monocytes and dendritic cells that express TLR7, TLR8 and TLR9; endogenous in cells; host or cells: human PBMCs from healthy donors
Test: Human PBMC cell-based assay, TLR7 agonist GS-986 stimulation, cytokine (IL-6 and IFNα) readout
Details: human PBMCs, GS-986 400 nM, 6 hours; Table 26; read-out: TLR-7 EC50
This listing pairs compounds with measured pEC50.
On this scale, pEC50 is minus log10 of a concentration expressed in M (mol/L).

1) Cc1cc(-c2[nH]c3cc(-c4ccnc(N5CCN(C)CC5)c4)ccc3c2C)cc(C)n1 :: 6.57
2) Cc1cc(-c2[nH]c3cc(-c4ccc(N5CCNCC5)nc4)ccc3c2C)c2ccccc2n1 :: 7.53
3) Cc1cc(-c2[nH]c3cc(-c4ccc(C5=CCCNC5)nc4)ccc3c2C)cc(C)n1 :: 8.04
4) Cc1cc(-c2[nH]c3cc(-c4ccc(N5CC6CNCC6C5)nc4)ccc3c2C)cc(C)n1 (centres unmarked) :: 7.75

Record `Cc1cc(-c2[nH]c3cc(-c4ccc(N5CCN(C(=O)[C@@H]6COCCN6)CC5)nc4)ccc3c2C)cc(C)n1` , field pEC50: 7.49

---

Target: TLR7 (Homo sapiens)
Construct: lymphocytes, monocytes and dendritic cells that express TLR7, TLR8 and TLR9; endogenous in cells; host or cells: human PBMCs from healthy donors
Assay: Human PBMC cell-based assay, TLR7 agonist GS-986 stimulation, cytokine (IL-6 and IFNα) readout
Settings: human PBMCs, GS-986 400 nM, 6 hours; Table 26; read-out: TLR-7 EC50
This listing pairs molecules with measured EC50.
Use µM as the unit, but write only the number.

1. Cc1cc(-c2[nH]c3cc(-c4ccc5[nH]cnc5c4)ccc3c2C)cc(C)n1 :: 0.121
2. Cc1cc(-c2[nH]c3cc(-c4ccc(N5CCNCC5)cc4)ccc3c2C)cc(C)n1 :: 0.0832

Now let's try a different one.
Entry `Cc1c(-c2ccnc(C#N)c2)[nH]c2cc(-c3ccc(N4CCNCC4)nc3)ccc12` , tested on TLR7 (Homo sapiens), has a reported EC50 of 0.0773

---

Molecular target: TLR7 (Homo sapiens)
Construct: lymphocytes, monocytes and dendritic cells that express TLR7, TLR8 and TLR9; endogenous in cells; host or cells: human PBMCs from healthy donors
Sequence (Q9NYK1 27-1049): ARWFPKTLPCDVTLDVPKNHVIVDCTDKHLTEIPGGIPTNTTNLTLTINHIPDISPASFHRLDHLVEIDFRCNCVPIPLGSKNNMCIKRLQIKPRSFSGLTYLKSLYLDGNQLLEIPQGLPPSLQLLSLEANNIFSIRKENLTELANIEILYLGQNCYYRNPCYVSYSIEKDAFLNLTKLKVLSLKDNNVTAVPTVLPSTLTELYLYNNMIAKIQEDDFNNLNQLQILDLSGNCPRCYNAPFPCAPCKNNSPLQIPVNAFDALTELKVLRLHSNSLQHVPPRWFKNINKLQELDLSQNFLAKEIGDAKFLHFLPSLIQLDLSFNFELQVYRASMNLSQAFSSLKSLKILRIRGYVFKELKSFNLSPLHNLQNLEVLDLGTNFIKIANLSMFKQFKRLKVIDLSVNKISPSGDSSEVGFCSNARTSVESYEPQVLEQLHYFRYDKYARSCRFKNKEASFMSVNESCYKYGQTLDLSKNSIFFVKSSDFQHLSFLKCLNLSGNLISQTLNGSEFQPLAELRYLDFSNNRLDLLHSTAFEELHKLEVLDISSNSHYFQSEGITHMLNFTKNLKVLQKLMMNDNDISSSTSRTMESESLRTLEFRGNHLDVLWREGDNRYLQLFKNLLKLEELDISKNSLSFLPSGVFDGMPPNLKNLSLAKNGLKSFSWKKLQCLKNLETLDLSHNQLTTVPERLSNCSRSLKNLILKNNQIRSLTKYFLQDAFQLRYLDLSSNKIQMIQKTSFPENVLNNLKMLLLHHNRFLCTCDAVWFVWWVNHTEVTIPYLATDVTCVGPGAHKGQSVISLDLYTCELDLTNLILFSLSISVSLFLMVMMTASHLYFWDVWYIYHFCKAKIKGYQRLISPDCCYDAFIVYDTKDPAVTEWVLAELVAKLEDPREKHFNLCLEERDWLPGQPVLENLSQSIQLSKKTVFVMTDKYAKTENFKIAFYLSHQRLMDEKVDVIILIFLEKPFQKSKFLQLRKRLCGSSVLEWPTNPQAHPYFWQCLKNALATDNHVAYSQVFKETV
Assay: Human PBMC cell-based assay, TLR7 agonist GS-986 stimulation, cytokine (IL-6 and IFNα) readout
Settings: human PBMCs, GS-986 400 nM, 6 hours; Table 26; read-out: TLR-7 EC50
pEC50: −log10 of the molar value.
Think of 7 as a floor: if pEC50 stands on it or above, it is True; beneath it, False.

Completed entries (count: 2):
1) Cc1cc(-c2[nH]c3cc(-c4cnc(N5CCNCC5)nc4)ccc3c2C2CC2)cc(C)n1 [Example 67] :: True
2) Cc1cc(-c2[nH]c3cc(-c4ccc(N5CC[C@H]6CNC[C@H]65)nc4)ccc3c2C)cc(C)n1 [Example 33] :: True

Answer whether pEC50 of Cc1cncc(-c2[nH]c3cc(-c4ccc(N5CCNCC5)nc4)ccc3c2C)c1C [Example 86] is greater than or equal to 7.
False

---

This listing pairs compounds with measured pEC50.
Biological target: TLR7 (Homo sapiens, UniProt Q9NYK1)
Construct: lymphocytes, monocytes and dendritic cells that express TLR7, TLR8 and TLR9; endogenous in cells; host or cells: human PBMCs from healthy donors
Sequence (Q9NYK1 27-1049): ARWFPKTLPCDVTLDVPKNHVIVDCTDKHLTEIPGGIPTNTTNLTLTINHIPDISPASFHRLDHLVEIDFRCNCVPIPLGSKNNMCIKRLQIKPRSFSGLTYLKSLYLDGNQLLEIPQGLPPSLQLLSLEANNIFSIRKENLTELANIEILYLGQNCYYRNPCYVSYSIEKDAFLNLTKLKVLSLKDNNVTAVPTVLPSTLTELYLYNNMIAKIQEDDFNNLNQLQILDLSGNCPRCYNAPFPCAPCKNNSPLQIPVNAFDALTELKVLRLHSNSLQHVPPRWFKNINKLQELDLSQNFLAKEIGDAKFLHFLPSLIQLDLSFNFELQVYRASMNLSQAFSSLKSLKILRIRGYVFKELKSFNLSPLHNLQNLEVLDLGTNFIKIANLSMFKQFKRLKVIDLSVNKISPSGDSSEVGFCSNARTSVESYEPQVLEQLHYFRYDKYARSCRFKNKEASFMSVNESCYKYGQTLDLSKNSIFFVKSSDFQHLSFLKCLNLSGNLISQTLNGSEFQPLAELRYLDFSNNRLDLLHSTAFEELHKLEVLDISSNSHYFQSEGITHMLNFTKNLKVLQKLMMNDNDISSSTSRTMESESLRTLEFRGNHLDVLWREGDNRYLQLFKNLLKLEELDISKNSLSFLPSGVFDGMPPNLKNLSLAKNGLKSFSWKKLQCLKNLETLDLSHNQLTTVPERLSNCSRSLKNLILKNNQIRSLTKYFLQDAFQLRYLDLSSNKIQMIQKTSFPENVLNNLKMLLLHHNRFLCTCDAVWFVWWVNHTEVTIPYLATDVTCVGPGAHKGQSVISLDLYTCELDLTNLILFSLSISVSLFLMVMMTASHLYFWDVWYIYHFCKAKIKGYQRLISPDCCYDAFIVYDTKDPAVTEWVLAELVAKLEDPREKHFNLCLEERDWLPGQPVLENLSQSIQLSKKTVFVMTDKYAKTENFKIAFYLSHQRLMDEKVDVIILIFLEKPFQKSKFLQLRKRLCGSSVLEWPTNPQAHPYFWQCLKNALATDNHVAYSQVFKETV
Experiment: Human PBMC cell-based assay, TLR7 agonist GS-986 stimulation, cytokine (IL-6 and IFNα) readout
Details: human PBMCs, GS-986 400 nM, 6 hours; Table 26; read-out: TLR-7 EC50
On this scale, pEC50 is minus log10 of a concentration expressed in M (mol/L).

1) Cc1cc(-c2[nH]c3cc(-c4cnc5c(c4)CCNC5)ccc3c2C)cc(C)n1 :: 7.32

Entry `Cc1cc(-c2[nH]c3cc(-c4ccc(N5C[C@H]6CC[C@@H](C5)[C@H]6N)nc4)ccc3c2C)cc(C)n1` , tested on TLR7 (Homo sapiens, UniProt Q9NYK1), has a reported pEC50 of 6.71

Entry `Cc1cc(-c2[nH]c3cc(-c4cccc5c4CCNC5)ccc3c2C)cc(C)n1` , tested on TLR7 (Homo sapiens, UniProt Q9NYK1), has a reported pEC50 of 6.22

Entry `Cc1cc(-c2[nH]c3cc(-c4ccn5ccnc5c4)ccc3c2C)cc(C)n1` , tested on TLR7 (Homo sapiens, UniProt Q9NYK1), has a reported pEC50 of 6.70
